Attribute: NT Binding Efficacy % increase
# STUDY SYSTEM: NTR1 (Homo sapiens, UniProt P30989)
# Construct: endogenous in cells; host or cells: PC3 cells (ATCC)
# Sequence (P30989 whole entry): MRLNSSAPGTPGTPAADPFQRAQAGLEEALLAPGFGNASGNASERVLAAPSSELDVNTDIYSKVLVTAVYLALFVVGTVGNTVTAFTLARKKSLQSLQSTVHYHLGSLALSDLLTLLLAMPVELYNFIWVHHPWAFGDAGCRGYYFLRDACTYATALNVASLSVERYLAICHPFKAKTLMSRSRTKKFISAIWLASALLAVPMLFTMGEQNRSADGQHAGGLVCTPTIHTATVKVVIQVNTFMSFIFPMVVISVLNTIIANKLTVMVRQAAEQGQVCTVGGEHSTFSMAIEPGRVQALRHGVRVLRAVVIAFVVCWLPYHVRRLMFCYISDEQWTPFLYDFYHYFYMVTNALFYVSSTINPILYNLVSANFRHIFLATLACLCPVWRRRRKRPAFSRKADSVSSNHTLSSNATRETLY
# ASSAY METHOD TEXT: ^125I-NT binding to PC3 cells
# CONDITION: maximal % increase in NT binding observed for each agent
Numbers only; they are read as % increase.

Endpoint output: NT Binding Efficacy % increase of COc1ccc2cc1Oc1ccc(cc1)C[C@H]1c3cc(c(OC)cc3CCN1C)Oc1c(OC)c(OC)cc3c1[C@H](C2)N(C)CC3 . Value? 35

Endpoint output: NT Binding Efficacy % increase of CN1CCN(CCCN2c3ccccc3Sc3ccc(C(F)(F)F)cc32)CC1 . Value? 16

Endpoint output: NT Binding Efficacy % increase of Fc1ccc(C(c2ccc(F)cc2)N2CCN(C/C=C/c3ccccc3)CC2)cc1 . Value? 45

Endpoint output: NT Binding Efficacy % increase of COc1ccc([C@@H]2Sc3ccccc3N(CCN(C)C)C(=O)[C@@H]2OC(C)=O)cc1 . Value? 38

Endpoint output: NT Binding Efficacy % increase of COc1ccc(CCCOC(Cn2ccnc2)c2ccc(OC)cc2)cc1 (centres unmarked) . Value? 155
